B1: WEE1 (parent)
chain: FISRTSIPNAASEEGDEDDWASNK

Variants of: B1
Assay: protein stability index of a GFP-peptide fusion (GPS, HEK-293T) (PSI 1-6); higher = more stable;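 also: lentivirally expressed fusions sorted by FACS into six bins by GFP to DsRed ratio, PSI derived from sequencing read proportions per bin multiplied by bin number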
Conditions: c terminus: a fixed tail appended
Response key: 1 means protein stability index >= 4; 0 means protein stability index < 4.

Consider the worked cases shown below.
>>> df
   mutation_id  group
0          N9K      1
1          R4V      1
2         D18T      0
3          R4W      0
4         N23T      1
5         K24D      1
6         K24R      0
7          N9T      1
8         E14D      0
9          I2V      0

Incoming: Test whether the variant A10D records protein stability index of 4 or higher.
Outgoing: 0

Incoming: Test whether the variant A11S records protein stability index of 4 or higher.
Outgoing: 1
